Molecular target: TAK1 (Homo sapiens, UniProt O43318)
Construct: lines 1-140) and Reaction Biology
Sequence (O43318 1-303 limits assumed): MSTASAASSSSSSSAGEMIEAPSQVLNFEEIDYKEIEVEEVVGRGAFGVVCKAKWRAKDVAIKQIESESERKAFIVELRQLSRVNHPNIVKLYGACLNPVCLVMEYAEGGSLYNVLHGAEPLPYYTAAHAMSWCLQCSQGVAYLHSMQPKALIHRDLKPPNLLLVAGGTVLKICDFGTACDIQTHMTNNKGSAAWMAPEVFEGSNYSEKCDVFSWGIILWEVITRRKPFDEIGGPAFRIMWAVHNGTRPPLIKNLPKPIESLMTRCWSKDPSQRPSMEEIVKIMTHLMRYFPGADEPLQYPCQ
Assay: Dundee kinase panel
Format: biochemical
Conditions: read-out: residual activity
measured.attribute: remaining activity at 1 µM (%)

>>> observed_measurement("O=C1Cc2c([nH]c3ccc(Br)cc23)-c2ccccc2N1 [Kenpaullone]")
113
>>> observed_measurement("COCCOc1ccc(-c2cn(-c3ccccc3)c3nc[nH]c(=O)c23)cc1 [DMX-5804]")
61
>>> observed_measurement("Oc1ncnc2c1c(-c1ccccc1)cn2-c1ccccc1 [F1386-0303]")
102
>>> observed_measurement("O=C1Nc2ccc(I)cc2/C1=C/c1cc(Br)c(O)c(Br)c1 [GW5074]")
92
